- measurement-target: Leucine aminopeptidase (Plasmodium falciparum (isolate 3D7))
- test-details: P. falciparum M17LAP inhibitors, primary screen, biochemical, fluorogenic H-Leu-NHMec substrate, 1536-well (AID 1619);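 also: plate controls were full reaction with DMSO carrier for no effect and no enzyme background for full effect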
- particulars: recombinant M17LAP, H-Leu-NHMec fluorogenic kinetic assay; at 30 µM; active compounds read high
The campaign covered roughly 220,000 compounds. About 830 (0.38%) were called active. The list is a sample of the results. Entries with a potency or affinity are not part of this list.
The molecules listed here are annotated with their inhibition.

Answered examples (2):
stdin: Query (molecule): Cc1ccc(-n2cc(CN3CCN(C(=O)c4ncn[nH]4)CC3)c(-c3ccc(F)cc3)n2)cc1 ; field requested: inhibition
stdout: 5.18% (inactive)

stdin: Moving on to COc1cc(OC)c(OC)cc1/C=N/NC(=O)CC1C(=O)NN=C1C (stereo not drawn)
stdout: 53.3% (inactive)

Next item in the queue.
stdin: Query (molecule): CC1CCCCN1C(=O)CSc1nc(-c2ccccc2)cn1N (stereo not drawn) ; field requested: inhibition
stdout: 14.6% (inactive)

----------
- measurement-target: Leucine aminopeptidase (Plasmodium falciparum (isolate 3D7))
- test-details: P. falciparum M17LAP inhibitors, primary screen, biochemical, fluorogenic H-Leu-NHMec substrate, 1536-well (AID 1619);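 also: plate controls were full reaction with DMSO carrier for no effect and no enzyme background for full effect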
- particulars: recombinant M17LAP, H-Leu-NHMec fluorogenic kinetic assay; at 30 µM; active compounds read high
About 830 (0.38%) of roughly 220,000 compounds were called active. A selection follows. Entries with a potency or affinity are not part of this list.
property-measured: inhibition (%)
Field format: number, assumed %, no unit text.

Answered examples (3):
stdin: Query (compound): COC(=O)Cc1[nH]nc2c1C(c1ccc(O)c(OC)c1)C(C#N)=C(N)O2 (configuration not stated) ; field requested: inhibition
stdout: 17.1

stdin: Moving on to Cc1cc(-c2ccco2)n(CC(=O)NCCN(C)C)n1
stdout: -1.86

stdin: Moving on to COc1ccccc1-c1nnc(SCC(=O)N2CCOCC2)o1
stdout: -5.18

More entries:
stdin: Query (compound): CCNC(=O)CC1C(=O)N(c2ccccc2)C(=O)N1Cc1ccc(OC)cc1 (configuration not stated) ; field requested: inhibition
stdout: -7.36

stdin: Moving on to CC(NS(=O)(=O)c1ccc([N+](=O)[O-])cc1)C(=O)NN (configuration not stated)
stdout: 5.26

stdin: Moving on to CCOC(=O)c1ccc(NC(=O)c2cccc(C)c2[N+](=O)[O-])cc1
stdout: 0.85

stdin: Moving on to Cc1ccc(-c2ccc(C3C(C#N)=C(N)Oc4n[nH]c(C)c43)o2)cc1 (configuration not stated)
stdout: 15.7

----------
- measurement-target: Leucine aminopeptidase (Plasmodium falciparum (isolate 3D7))
- test-details: P. falciparum M17LAP inhibitors, primary screen, biochemical, fluorogenic H-Leu-NHMec substrate, 1536-well (AID 1619);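 also: plate controls were full reaction with DMSO carrier for no effect and no enzyme background for full effect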
- particulars: recombinant M17LAP, H-Leu-NHMec fluorogenic kinetic assay; at 30 µM; active compounds read high
The whole screen tested about 220,000 compounds, of which about 830 (0.38%) were called active. These entries were drawn from the full list. Measured potencies and affinities stand elsewhere.
The compounds listed here are annotated with their inhibition.
Field format: number, assumed %, no unit text.

stdin: Query (compound): Cc1csc(SCC(=O)Nc2ccc3c(c2)OCCO3)n1 ; field requested: inhibition
stdout: -1.69

stdin: Moving on to CCOc1cc(OCC)cc(C(=O)NC(=S)Nc2cccc(C(F)(F)F)c2)c1
stdout: 3

More entries:
stdin: Query (compound): COc1ccc(N2CCN(c3nc(Cl)nc(N4CCOCC4)n3)CC2)cc1 ; field requested: inhibition
stdout: 11.3

stdin: Moving on to Cc1ccc(-n2c(Cc3cccn3C)nnc2SCC(=O)NCc2ccco2)cc1
stdout: 20.7

stdin: Moving on to N/C(=N\OC(=O)COc1ccc(Br)cc1Cl)c1ccccn1
stdout: -6.93

stdin: Moving on to CC(C)c1ccc(-c2nc(N3CCCC3)nc3n[nH]c(N)c23)cc1
stdout: 27.7

stdin: Moving on to COc1ccc(-c2nnc(SCC(=O)NCCc3ccccc3)o2)cc1
stdout: -10.2

stdin: Moving on to COc1ccc(-c2nc3ccccc3[nH]2)cc1
stdout: 12.5

stdin: Moving on to Cc1ccc(S(=O)(=O)Nc2nc(C)c(C(=O)NN)s2)cc1
stdout: 18.9
